Entries annotated with measured OD450 nm
Target: T1, recombinant cyno monkey PCSK9 protein (cyno monkey, UniProt A8T666 31-692 (rhesus entry), limits assumed, biotin-labelled in the ELISA (Biotin labeling kit))
T1 construct: also called cyno PCSK9; Cyno Monkey PCSK9-His
T1 sequence (A8T666 31-692 limits assumed): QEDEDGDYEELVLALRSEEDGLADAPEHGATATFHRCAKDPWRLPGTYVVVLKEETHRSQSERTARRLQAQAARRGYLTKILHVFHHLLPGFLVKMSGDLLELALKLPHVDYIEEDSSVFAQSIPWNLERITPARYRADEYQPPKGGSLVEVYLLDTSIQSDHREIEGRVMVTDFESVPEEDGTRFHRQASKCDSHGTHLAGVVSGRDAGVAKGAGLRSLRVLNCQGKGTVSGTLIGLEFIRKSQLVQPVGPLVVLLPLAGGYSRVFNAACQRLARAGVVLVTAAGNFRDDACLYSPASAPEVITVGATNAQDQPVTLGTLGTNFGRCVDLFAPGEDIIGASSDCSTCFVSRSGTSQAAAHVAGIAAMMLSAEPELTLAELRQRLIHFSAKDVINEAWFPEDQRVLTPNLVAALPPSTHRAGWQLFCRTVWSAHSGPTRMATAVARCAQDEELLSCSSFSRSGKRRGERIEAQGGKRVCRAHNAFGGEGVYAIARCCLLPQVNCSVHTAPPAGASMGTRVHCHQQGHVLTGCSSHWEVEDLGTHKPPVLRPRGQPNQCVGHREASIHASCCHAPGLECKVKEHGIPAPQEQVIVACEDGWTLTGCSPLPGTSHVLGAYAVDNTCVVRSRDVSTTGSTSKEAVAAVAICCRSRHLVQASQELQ
Test: ELISA, biotin-cyno PCSK9 on streptavidin plate; antibody 66.67 nM
Respond numerically; units are OD450 nm and should not be typed.

Worked cases, answers included:
[
  {
    "binder": "74C10A8, chimeric anti-PCSK9 mAb purified from hybridoma (antibody, V domains shown, From Harbour H2L2 mice: human variable regions, rat constant regions) VH: QVQLQESGPGLVKPSETLSLTCSVSGGSINTYYWSWIRQPPGKGLEWIGYIYYSGSTNYNPSLKSRVTISVDTSKNQFSLKLTSVTAADTAVYYCARERFTMVRGVMMDYYYYGMDVWGQGTTVTVSS VL: DIQLTQSPSFLSASVGDRVTITCRASQGISSYLAWYQQKPGKAPKLLIYAASTLQSGVPSRFSGSGSGTEFTLTISSLQPEDFATYYCQQLNSYPRTFGQGTKVEIK",
    "data-value": 2.89
  },
  {
    "binder": "76A1B11, chimeric anti-PCSK9 mAb purified from hybridoma (antibody, V domains shown, From Harbour H2L2 mice: human variable regions, rat constant regions) VH: QVQLVESGGGVVQPGRSLRLSCAATGFTFSIYGMHWVRQAPGKGLEWVAVIWYDGSNKYYADSVKGRFIISRDNSKNTLYLQMNSLRVEDTAVYYCVSDYFGSGNSYYYYGMDVWGQGTTVTVSS VL: DIQMTQSPSSLSASVGDRVTITCRASQVISNYLAWYQQKPGKVPKLLIYTASTLQSGVPSRFSGSGSGADFTLTISSLQPEDVATYYCQKYNSAPYTFGQGTKLEIK",
    "data-value": 2.88
  },
  {
    "binder": "139G1C5, chimeric anti-PCSK9 mAb purified from hybridoma (antibody, V domains shown, From Harbour H2L2 mice: human variable regions, rat constant regions) VH: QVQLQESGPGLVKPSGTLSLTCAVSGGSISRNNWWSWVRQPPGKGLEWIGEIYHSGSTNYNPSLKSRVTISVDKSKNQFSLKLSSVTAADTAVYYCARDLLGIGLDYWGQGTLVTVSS VL: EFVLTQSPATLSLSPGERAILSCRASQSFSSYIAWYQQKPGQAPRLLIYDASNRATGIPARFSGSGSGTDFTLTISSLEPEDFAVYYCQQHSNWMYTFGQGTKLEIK",
    "data-value": 2.9
  }
]

Now for the binder whose OD450 nm we want.
Fill in the blank: the reported OD450 nm of 152G2F7, chimeric anti-PCSK9 mAb purified from hybridoma (antibody, V domains shown, From Harbour H2L2 mice: human variable regions, rat constant regions) VH: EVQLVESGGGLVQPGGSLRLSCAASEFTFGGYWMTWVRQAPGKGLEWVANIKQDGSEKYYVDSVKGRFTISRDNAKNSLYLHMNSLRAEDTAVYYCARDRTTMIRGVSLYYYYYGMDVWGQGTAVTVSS VL: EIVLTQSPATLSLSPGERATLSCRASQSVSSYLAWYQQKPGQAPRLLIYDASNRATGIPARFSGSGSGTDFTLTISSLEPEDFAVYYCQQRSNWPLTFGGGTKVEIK is ____.
2.93
